Biological target: C2orf70
Test: pooled miR-30 sensor sort-seq; sequence = guide strand
Conditions: shRNA
For each record, write down the corresponding sensor-assay potency score (higher = more potent).
No unit in the answer, please; the number alone is enough.

Task item: Give its sensor-assay potency score (higher = more potent) value. Item: TTGATAGTACTTCCGATGCTGC
Reply: -0.858

Task item: Queued: TTGTCTTGATAGTACTTCCGAT
Reply: -0.575

Task item: Can you check TAGAAATTCGTAAGCTCTGTGG next?
Reply: -0.326

Task item: Okay, and TGTCTTGATAGTACTTCCGATG ?
Reply: -1.09

Task item: Queued: TTCGTAAGCTCTGTGGAGCGAT
Reply: -0.412

Task item: Now consider TTGGTGGAGAAGATGGTGGGGA and answer again.
Reply: 0.218

Task item: Would you kindly repeat that for TAGGTCTTCAGGTTCTCGGGGG ?
Reply: 0.319

Task item: Query TAGTCTTAAAAGGTGCCACTTC next
Reply: -0.307

Task item: Now the sequence TACTTGAGGGTGGTGGTGCCGT
Reply: -0.758

* * *

Field: sensor-assay potency score (higher = more potent). Provide a value for each of the sequences that follow.
Target: TRIM48
Assay: pooled miR-30 sensor sort-seq; sequence = guide strand
Settings: shRNA
Form field (numeric): enter value without unit.

Task item: Give the measured sensor-assay potency score (higher = more potent) of TTAACAGCTTCTCCCAGTGTTC .
Reply: -1.29

Task item: Another sequence: AACATCTTCTTTGTCTCCCTGT
Reply: 0.214

Task item: Follow-up entry: ATGTCGTTCTTAACACACCCAA
Reply: -1.03

Task item: And TTCTTTAACAGCTTCTCCCAGT ?
Reply: -0.186

Task item: Also check TTTCTTTAACAGCTTCTCCCAG
Reply: -0.688

Task item: Next entry: TTCTCTGCTGTATTGTCTTTAT
Reply: -1.43

Task item: # iterate: AAACCGAACCTATTTGTCCTGT
Reply: 0.0588

Task item: What about TGTCGTTCTTAACACACCCAAG ?
Reply: -1.51

* * *

So I've got a bunch of sequences here, and I need their sensor-assay potency score (higher = more potent) values.
Target: NAA35
Assay: pooled miR-30 sensor sort-seq; sequence = guide strand
Conditions: shRNA
Please state the value as a number alone, without comment.

Task item: Lookup: sensor-assay potency score (higher = more potent) / NAA35 / TCTATTAACCTCATGGTCCGGG
Reply: 0.321

Task item: Then this sequence: TTAATTCTCGACAAGCTTCTTC
Reply: 0.731

Task item: Same lookup for TTATTCTATCTATTAATCTTGC , please.
Reply: -0.493

Task item: Next: ATATATGTAATAGTACTCGTGC
Reply: 0.454

Task item: Request: TTATTATATAGGTAGCACTTGG
Reply: -0.806

Task item: // repeat for TATGTAATAGTACTCGTGCATA and report
Reply: -1.06

* * *

Target: PLB1
Test: pooled miR-30 sensor sort-seq; sequence = guide strand
Conditions: shRNA
Outcome label depends on sensor-assay potency score (higher = more potent) relative to 0.1: at/above gives MET, below gives NOT MET.

Task item: Is sensor-assay potency score (higher = more potent) at least 0.1? Consider TTATCTTCCAGTCTTCCTGAAA
Reply: NOT MET

Task item: Now try TTGATCTTGTTTTCAAACTTAT .
Reply: NOT MET

Task item: Try TAAGGTGGTCACATTCTCCAGG next.
Reply: NOT MET

Task item: Same thing, different sequence: TACTGTGTGGTGACATCGGGGA
Reply: MET

Task item: Let us now turn to TAGTGGACCAGATCATTGCAGA
Reply: NOT MET

Task item: // repeat for TATTGTTCCAGAGAGCACTGGC and report
Reply: MET

Task item: Consider next the sequence TATTATCTTCCAGTCTTCCTGA in the same way.
Reply: MET

* * *

Molecular target: FUT7
Assay: pooled miR-30 sensor sort-seq; sequence = guide strand
Conditions: shRNA
Please provide measured sensor-assay potency score (higher = more potent) for the entries that follow.
When you answer, write just the number.

Task item: Find the recorded sensor-assay potency score (higher = more potent) belonging to TTGGCACTCAGGTGGCAGCGGG and report it.
Reply: -1.03

Task item: For TCGGTGAACAGTCGCACGCGGA then?
Reply: -1.48

Task item: Check TAGGGCACAAAGATGTCCGAGT too.
Reply: -0.24

Task item: And then TGTCGCTGGGCAGCTCTGGGGG , what is it?
Reply: -1.3

Task item: Next entry: AAAGATGTCCGAGTCGCGCCGG
Reply: -0.517

Task item: Now give it for TCAAAGGACAGGTAGAAGCGGT too.
Reply: 0.117

Task item: Further, for TCACAGATGGCACAGAAACGTT ?
Reply: -1.59

Task item: Moving on to the next sequence: TCCTCATAGACTTGGCTGCGGG
Reply: -1.76

Task item: Next sequence up: TCTCCGTAATGTAGTCGCGGTG
Reply: -1.48

Task item: And TTGATTTCGACACCCAGCCCTT ?
Reply: -1.26

* * *

Please provide measured sensor-assay potency score (higher = more potent) for the entries that follow.
Target: AADACL3
Assay: pooled miR-30 sensor sort-seq; sequence = guide strand
Details: shRNA
In your answer, state the number alone without any accompanying words.

Task item: Fill blank: measured sensor-assay potency score (higher = more potent) of the sequence TTTTCTTGTACAACAGTGAATT is ____.
Reply: -1.64

Task item: And what about the sequence TATGCTTAGGTAACTTGCGGTA ?
Reply: -0.306

Task item: Let us now turn to TTCATGATGACCTCTTGCCAGG
Reply: -1.37

Task item: Would you mind doing TTACTTCCAAGTAAGCAGCTTC as well?
Reply: 0.308

Task item: What do you get for TACAACAGTGAATTGTCCCGGA ?
Reply: 0.727

Task item: Now the sequence TTTCATGATGACCTCTTGCCAG
Reply: -1.07

* * *

Kindly state sensor-assay potency score (higher = more potent) for each of the entries shown.
Target: OSBPL3
Experiment: pooled miR-30 sensor sort-seq; sequence = guide strand
Settings: shRNA
// return just the number, without any unit appended

Task item: Which measured sensor-assay potency score (higher = more potent) value corresponds to TACATTCATATAAACAATCAGG ?
Reply: -0.979

Task item: Also, TATAGTATTGCTCGTAGCCTTT please.
Reply: -1.22

Task item: Okay, and TTCTTCTCCGGGACTTCGCTTC ?
Reply: 0.0582

Task item: Please do the same for TTCTTGATGACAATCTCTCCAT as well.
Reply: -0.313

Task item: And for TTCTTTACAGACATCACTGAGA ?
Reply: 0.168

Task item: What do you have for TCTACTTTCATTAGAAAGCTGA ?
Reply: -0.307

Task item: Let us now turn to TTGGAGATAACAGAACTTCCTG
Reply: 0.0622

Task item: Next record, please: TAAATCGAGTGTCAGTAGGTGG
Reply: -1.06

Task item: Now the sequence TGAAGCTATAGTATTGCTCGTA
Reply: -0.222

Task item: Now the same for TAGAAGAATCTCTTATGCCAGC
Reply: -0.865

* * *

Biological target: TUT1
Experiment: pooled miR-30 sensor sort-seq; sequence = guide strand
Settings: shRNA
Classification field: enter label 1 for sensor-assay potency score (higher = more potent) values not below -1, label 0 for values below it.

Task item: Say whether TACTGAGGGAGACATCACCGTG shows sensor-assay potency score (higher = more potent) of -1 or more.
Reply: label 0

Task item: Now consider TAGTTCTACCAGGTGCCGGTGC and answer again.
Reply: label 1

Task item: And what about the sequence TTTGGACTCGATACACCCCAGG ?
Reply: label 1

Task item: Repeat with TCGTAGTTCTACCAGGTGCCGG
Reply: label 0

Task item: Another sequence to check: TTGGGGTCTCTGCTAGTTCCGA
Reply: label 0

Task item: Next: TTCTCGCAGCTCGTAGTTCTAC
Reply: label 1

Task item: One more sequence: TAGGAAGTACTCAGAGAGCTGA
Reply: label 1

* * *

Molecular target: FLNC
Test: pooled miR-30 sensor sort-seq; sequence = guide strand
Conditions: shRNA
Parameter measured: sensor-assay potency score (higher = more potent)

Task item: GET /values?readout=sensor-assay potency score (higher = more potent)&item= TTGATGTCCACCTTGCTTGGGC
Reply: 0.144

Task item: Now this one: TTGAGGTTGAGGTCACAGGTGC
Reply: -0.307

Task item: Try this sequence next: TAGGTGACTTTGCATGTCCCGT
Reply: -0.929

Task item: One more sequence: TTGAGGTCACAGGTGCTGCCGA
Reply: -0.595

Task item: Please answer likewise for TTGACGGTGAAGGTGTCGTTGT
Reply: -0.371

Task item: Cool, now TGAACTCTGATGACACACCGGT
Reply: 0.0555

Task item: # iterate: TAGCTGACAGCACATGAGCCAT
Reply: -1.71

Task item: Also TTCAGTGACACGTCCGTGGAGG ?
Reply: -0.25
